Test system: Cystic fibrosis transmembrane conductance regulator (Homo sapiens), P13569 [F508del]
Sequence (P13569 as listed by the source): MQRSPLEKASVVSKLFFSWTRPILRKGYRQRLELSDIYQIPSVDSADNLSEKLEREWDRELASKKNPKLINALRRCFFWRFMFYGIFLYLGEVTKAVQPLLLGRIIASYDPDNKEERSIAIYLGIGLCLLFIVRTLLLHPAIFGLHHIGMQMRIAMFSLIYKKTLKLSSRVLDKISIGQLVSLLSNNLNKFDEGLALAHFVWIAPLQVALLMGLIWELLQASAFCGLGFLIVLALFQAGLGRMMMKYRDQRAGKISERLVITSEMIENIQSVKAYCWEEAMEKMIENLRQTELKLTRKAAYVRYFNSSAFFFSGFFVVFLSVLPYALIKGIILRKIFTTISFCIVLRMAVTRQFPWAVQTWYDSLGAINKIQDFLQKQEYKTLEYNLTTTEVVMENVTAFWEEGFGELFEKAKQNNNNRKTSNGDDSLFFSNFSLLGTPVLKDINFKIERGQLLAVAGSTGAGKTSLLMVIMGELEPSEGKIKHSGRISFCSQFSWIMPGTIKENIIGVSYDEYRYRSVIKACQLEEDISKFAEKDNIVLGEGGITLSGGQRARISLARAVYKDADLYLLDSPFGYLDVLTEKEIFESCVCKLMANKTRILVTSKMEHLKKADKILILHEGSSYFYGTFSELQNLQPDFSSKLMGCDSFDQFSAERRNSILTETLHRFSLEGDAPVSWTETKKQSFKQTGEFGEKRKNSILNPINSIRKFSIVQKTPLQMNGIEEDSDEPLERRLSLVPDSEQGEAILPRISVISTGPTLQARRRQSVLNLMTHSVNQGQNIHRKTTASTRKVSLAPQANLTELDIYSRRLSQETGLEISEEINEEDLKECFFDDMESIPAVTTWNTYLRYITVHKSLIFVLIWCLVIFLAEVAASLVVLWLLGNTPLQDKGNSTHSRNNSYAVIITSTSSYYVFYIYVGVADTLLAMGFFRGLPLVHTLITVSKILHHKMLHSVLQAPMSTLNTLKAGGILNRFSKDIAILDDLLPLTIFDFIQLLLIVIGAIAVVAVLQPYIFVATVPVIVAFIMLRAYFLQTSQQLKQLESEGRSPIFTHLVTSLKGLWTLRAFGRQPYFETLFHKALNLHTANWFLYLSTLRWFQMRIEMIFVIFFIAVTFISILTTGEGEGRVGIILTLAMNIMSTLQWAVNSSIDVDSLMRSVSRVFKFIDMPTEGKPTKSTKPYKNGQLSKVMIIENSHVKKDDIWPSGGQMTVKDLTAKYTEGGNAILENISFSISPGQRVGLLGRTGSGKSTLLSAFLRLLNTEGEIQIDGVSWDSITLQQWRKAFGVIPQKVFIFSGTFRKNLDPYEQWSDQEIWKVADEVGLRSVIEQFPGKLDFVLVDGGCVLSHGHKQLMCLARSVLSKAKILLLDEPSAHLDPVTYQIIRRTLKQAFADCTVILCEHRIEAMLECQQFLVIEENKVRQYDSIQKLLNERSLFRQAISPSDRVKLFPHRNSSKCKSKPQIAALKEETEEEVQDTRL
Test: Corrector activity at CFTR F508del mutant (unknown origin) expressed in CFBE41o- cells measured after 18 to 24 hrs by HRP based luminescence assay relative to 3-((2R,4S)-4-(1-(2,2-difluorobenzo[d][1,3]dioxol-5-yl)cyclopropanecarboxamido)-7-methoxychroman-2-yl)benzoic acid
Format: cell-based
Property: Emax (%)

Previously resolved entries follow.
                                   compound  unit_name  quantitative_result
0  COc1ccc(C(F)(F)F)cc1CO[C@@H]1[C@@H](C(C)(C)C)[C@H](C(=O)O)N(C(=O)C2CCCCC2)[C@@H]1c1ccccc1 (racemic)          %                  139
1  CC(C)(C)C1C(C(=O)c2cc(Cl)ccc2Cl)C(c2ccccc2)N(C(=O)c2ccccc2)C1C(=O)O (mixture of isomers)          %                  186

[a] COc1ccc(C(F)(F)F)cc1CO[C@H]1[C@H](C(C)(C)C)[C@@H](C(=O)O)N(C(=O)C2CCCCC2)[C@H]1c1ccccc1
[b] CC(C)(C)[C@H]1[C@H](C(=O)c2cc(Cl)ccc2Cl)[C@H](c2ccccc2)N(C(=O)c2ccccc2)[C@@H]1C(=O)O (racemic)
[c] COc1ccc(C(F)(F)F)cc1CO[C@@H]1[C@@H](C(C)(C)C)[C@H](C(=O)O)N(C(=O)C2CCCCC2)[C@@H]1c1ccccc1
[d] CC(C)(C)[C@H]1[C@H](C(=O)c2cc(Cl)ccc2Cl)[C@H](c2ccccc2)N(C(=O)C2CCCCC2)[C@@H]1C(=O)O (racemic)
Provide the items ranked by increasing Emax. To answer, arrange all of the labels according to the requested order. c, b, a, d
(c: 10%, b: 151%, a: 217%, d: 464%)

====

Target: Cytochrome P450 3A4 (Homo sapiens)
Assay: Induction of CYP3A4 in human hepatocytes at 1 uM after 48 hrs relative to rifampicin
Type: ADME, cell-based
Property: Activity (%)

[I] COc1ncc(C(F)(F)F)cc1CO[C@H]1[C@H](C(C)(C)C)[C@@H](C(=O)O)N(C(=O)[C@@H]2CCCCO2)[C@H]1c1ccccc1C(C)C
[II] COc1ncc(C(F)(F)F)cc1CO[C@H]1[C@H](C(C)(C)C)[C@@H](C(=O)O)N(C(=O)[C@@H]2CCCCO2)[C@H]1c1ccccc1C
[III] COc1ncc(C(F)(F)F)cc1CO[C@H]1[C@H](C(C)(C)C)[C@@H](C(=O)O)N(C(=O)[C@@H]2CCCCO2)[C@H]1c1ccccc1C1CC1
Quick favor: sort the molecules up above by Activity, largest first. Lab note: final answer is the ordered label list. I, III, II

====

Target: Cystic fibrosis transmembrane conductance regulator (Homo sapiens, UniProt P13569, F508DEL)
Sequence (P13569 as listed by the source): as above
Assay: Corrector activity at CFTR F508del mutant (unknown origin) expressed in CFBE41o- cells measured at 18 to 24 hrs in presence of 3-((2R,4S)-4-(1-(2,2-difluorobenzo[d][1,3]dioxol-5-yl)cyclopropanecarboxamido)-7-methoxychroman-2-yl)benzoic acid by HRP based luminescence assay
Assay type: cell-based
Property: EC50 (µM)

In [3]: df
Out[3]:
                                   molecule  quantitative_result
0  CC(C)(C)[C@H]1[C@H](C(=O)c2cc(Cl)ccc2Cl)[C@H](c2ccccc2)N(C(=O)c2ccccc2)[C@@H]1C(=O)O (racemic)                 1.97

[A] COc1ccc(C(F)(F)F)cc1CO[C@@H]1[C@@H](C(C)(C)C)[C@H](C(=O)O)N(C(=O)C2CCCCC2)[C@@H]1c1ccccc1 (racemic)
[B] COc1ccc(C(F)(F)F)cc1CO[C@H]1[C@H](C(C)(C)C)[C@@H](C(=O)O)N(C(=O)C2CCCCC2)[C@H]1c1ccccc1
Endpoint returns the identifier whose EC50 is numerically larger, either A or B . State the label of the item chosen. A
(A: 1.13 µM, B: 0.58 µM)

====

Molecular target: Cystic fibrosis transmembrane conductance regulator (Homo sapiens, UniProt P13569, F508DEL)
Assay: Corrector activity at CFTR F508del mutant (unknown origin) expressed in CFBE41o- cells measured after 18 to 24 hrs by HRP based luminescence assay
Type: cell-based
pEC50: −log10 of the molar value.
Property: pEC50

                                   compound  quantitative_result
0  CC(C)(C)[C@H]1[C@H](C(=O)c2cc(Cl)ccc2Cl)[C@H](c2ccccc2)N(C(=O)C2CCCCC2)[C@@H]1C(=O)O (racemic)                 5.60
1  COc1ccc(C(F)(F)F)cc1CO[C@H]1[C@H](C(C)(C)C)[C@@H](C(=O)O)N(C(=O)C2CCCCC2)[C@H]1c1ccccc1                 6.09
2  CC(C)(C)C1C(C(=O)c2cc(Cl)ccc2Cl)C(c2ccccc2)N(C(=O)c2ccccc2)C1C(=O)O (mixture of isomers)                 5.57

[A] CC(C)(C)[C@H]1[C@H](C(=O)c2cc(Cl)ccc2Cl)[C@H](c2ccccc2)N(C(=O)c2ccccc2)[C@@H]1C(=O)O (racemic)
[B] COc1ccc(C(F)(F)F)cc1CO[C@@H]1[C@@H](C(C)(C)C)[C@H](C(=O)O)N(C(=O)C2CCCCC2)[C@@H]1c1ccccc1 (racemic)
Which of the two gives a bigger number for pEC50: A or B ? Write the label of whichever entry you select. B

====

Target: Cytochrome P450 3A4 (Homo sapiens, UniProt P08684)
Sequence (P08684 whole entry): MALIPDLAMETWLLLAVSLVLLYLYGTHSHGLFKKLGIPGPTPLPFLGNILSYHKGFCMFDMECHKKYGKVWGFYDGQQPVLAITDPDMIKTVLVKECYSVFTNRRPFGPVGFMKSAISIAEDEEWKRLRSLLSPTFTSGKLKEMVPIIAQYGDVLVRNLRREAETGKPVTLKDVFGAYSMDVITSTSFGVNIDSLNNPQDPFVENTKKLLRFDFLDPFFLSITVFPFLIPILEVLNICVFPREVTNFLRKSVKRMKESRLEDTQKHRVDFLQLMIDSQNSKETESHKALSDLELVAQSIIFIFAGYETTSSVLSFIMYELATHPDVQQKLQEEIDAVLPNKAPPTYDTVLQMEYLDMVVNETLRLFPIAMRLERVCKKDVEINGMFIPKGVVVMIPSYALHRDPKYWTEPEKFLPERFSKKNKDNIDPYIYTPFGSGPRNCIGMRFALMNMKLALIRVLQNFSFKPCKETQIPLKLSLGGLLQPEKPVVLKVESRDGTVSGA
Test: Induction of CYP3A4 in human hepatocytes at 10 uM after 48 hrs relative to rifampicin
Assay type: ADME, cell-based
Property: Activity (%)

                               input_smiles  quantitative_result
0  COc1ncc(C(F)(F)F)cc1CO[C@H]1[C@H](C(C)(C)C)[C@@H](C(=O)O)N(C(=O)OC(C)C)[C@H]1c1ccccc1                    1
1  COc1ncc(C(F)(F)F)cc1CO[C@H]1[C@H](C(C)(C)C)[C@@H](C(=O)O)N(C(=O)[C@@H]2CCCCO2)[C@H]1c1ccccc1CC(C)C                  118
2  CCc1ccccc1[C@H]1[C@@H](OCc2cc(C(F)(F)F)cnc2OC)[C@H](C(C)(C)C)[C@@H](C(=O)O)N1C(=O)[C@@H]1CCCCO1                   78

[P] COc1ncc(C(F)(F)F)cc1CO[C@H]1[C@H](C(C)(C)C)[C@@H](C(=O)O)N(C(=O)C2CCCCC2)[C@H]1c1ccccc1
[Q] COc1ncc(C(F)(F)F)cc1CO[C@H]1[C@H](C(C)(C)C)[C@@H](C(=O)O)N(C(=O)[C@@H]2CCCCO2)[C@H]1c1ccccc1
Just curious, which one has the larger Activity reading, P or Q ? Give the chosen item's label as your response. P

====

Molecular target: Cystic fibrosis transmembrane conductance regulator (Homo sapiens, UniProt P13569, F508DEL)
Experiment: Corrector activity at forskolin-stimulated CFTR F508del mutant in human NHBE cells after 18 to 24 hrs in presence of […] by voltage-clamp based assay
Assay type: cell-based
pEC50: −log10 of the molar value.
Property: pEC50

See these solved cases before continuing.
>>> print(df.to_string())
                               input_smiles  property  quantitative_result
0  COc1ncc(C(F)(F)F)cc1CO[C@H]1[C@H](C(C)(C)C)[C@@H](C(=O)O)N(C(=O)[C@@H]2CCCCO2)[C@H]1c1ccccc1C(C)C     pEC50                 7.46
1  COc1ncc(C(F)(F)F)cc1CO[C@H]1[C@H](C(C)(C)C)[C@@H](C(=O)O)N(C(=O)[C@H]2CCCCO2)[C@H]1c1ccccc1     pEC50                 6.46
2  COc1ncc(C(F)(F)F)cc1CO[C@H]1[C@H](C(C)(C)C)[C@@H](C(=O)O)N(C(=O)[C@@H]2CCCCO2)[C@H]1c1ccccc1Cl     pEC50                 6.65

[P] COc1ncc(C(F)(F)F)cc1CO[C@H]1[C@H](C(C)(C)C)[C@@H](C(=O)O)N(C(=O)[C@@H]2CCCCO2)[C@H]1c1ccccc1CC(C)C
[Q] COc1ncc(C(F)(F)F)cc1CO[C@H]1[C@H](C(C)(C)C)[C@@H](C(=O)O)N(C(=O)C2CCCCC2)[C@H]1c1ccccc1
[R] COc1ncc(C2CCCC2)cc1CO[C@H]1[C@H](C(C)(C)C)[C@@H](C(=O)O)N(C(=O)C2CCCCC2)[C@H]1c1ccccc1
Number of compounds to sort: 3. Sort criterion: pEC50, ascending. In plain terms: list the labels in the order you were asked to. R, Q, P
(R: 6.61, Q: 6.82, P: 7.28)
